Tested on: DMS 114 small cell lung
Test: NCI tumour cell line growth inhibition, 48 h
property.label: TGI

• c1ccc(-c2[nH]c(-c3ccccc3)c(-c3cnccn3)c2-c2cnccn2)cc1 = > 100 µM
• O=c1cccccc1NCCNc1cccccc1=O = > 100 µM
• C=C1CC(OC)(C(O)C(=O)N[C@H]2OCO[C@H]3C2O[C@H](C[C@H](O)COC)C(C)(C)C3OC)O[C@H](C)[C@@H]1C (stereo partly drawn) = > 0.00772 µM
• Cc1c(N)nc(C(CC(N)=O)NCC(N)C(N)=O)nc1C(=O)NC(C(=O)NC(C)C(O)C(C)C(=O)NC(C(=O)NCCc1nc(-c2nc(C(=O)NCCCNCCCCN)cs2)cs1)C(C)O)C(OC1OC(CO)C(O)C(O)C1OC1OC(CO)C(O)C(OC(N)=O)C1O)c1cnc[nH]1 (stereo not drawn) = > 10 µM
• CCCCCCCCCCCCCCC(O)C1CCC(C(O)CCC(O)CCCCCC(O)CC2=CC(C)OC2=O)O1 (stereo not drawn) = 4.57 µM

Input line: So what's the measured TGI for this one? CCCCN(CCCC)C(=O)C(=O)CC(=O)/C=C/c1ccccc1
Output line: > 100 µM

Input line: So what's the measured TGI for this one? CC(=O)O[C@H]1C(=O)[C@@]2(C)C(C(OC(=O)c3ccccc3)[C@]3(O)CC(OC(=O)C(O)C(NC(=O)c4ccccc4)c4ccc(C)cc4)C(C)=C1C3(C)C)[C@]1(OC(C)=O)CO[C@@H]1C[C@@H]2O (stereo partly drawn)
Output line: 0.168 µM

Input line: So what's the measured TGI for this one? CC(=O)OCC(OC(C)=O)C(OC(C)=O)C(OC(C)=O)C(=O)CNn1c(-c2ccccc2Cl)nc2ccc(Br)cc2c1=O (stereo not drawn)
Output line: > 100 µM

Input line: So what's the measured TGI for this one? CN/N=C(\C(=O)Nc1ccc([N+](=O)[O-])cc1[N+](=O)[O-])C1NC(=O)NC1=O (stereo not drawn)
Output line: > 100 µM

Input line: So what's the measured TGI for this one? CN(CCN(C)C(=O)CCn1ccc(=O)[nH]c1=O)C(=O)CCn1ccc(=O)[nH]c1=O
Output line: > 100 µM

Input line: So what's the measured TGI for this one? COC(=O)C12C3C4C1C1C2C3C41C(=O)N(C(C)C)C(C)C (stereo not drawn)
Output line: > 100 µM

Input line: So what's the measured TGI for this one? O=C1OC2C=CC1C1(CCOC1=O)C2 (stereo not drawn)
Output line: > 100 µM

Input line: So what's the measured TGI for this one? COC(=O)/C(=N/O)C(C(=O)OC)C(=O)C(=O)Nc1c(Cl)cc(C)cc1S(=O)(=O)O (stereo not drawn)
Output line: > 100 µM

====

System: BT-549 breast
Assay: NCI tumour cell line growth inhibition, 48 h; in the data active = GI50 below about 0.43 µM; inactive = the rest
A correct response names exactly one class from true (1) for active, false (0) for inactive

• CC[C@H](C)[C@H](NC(=O)c1nccn1C)C(=O)N(C)[C@H](C[C@@H](OC(C)=O)c1nc(C(=O)N[C@@H](Cc2ccccc2)C[C@H](C)C(=O)OC)cs1)C(C)C = true (1)

Input line: How was CC(=O)O[C@H](C[C@H](C(C)C)N(C)C(=O)[C@@H](NC(=O)[C@H]1CCCCN1C)C(C)(C)C)c1nc(C(=O)N[C@@H](Cc2ccccc2)C[C@H](C)C(=O)O)cs1 classified in this test?
Output line: true (1)

Input line: How was NC(=S)N/N=C\c1nccc2c(C(F)(F)C(F)(F)C(F)(F)F)cccc12 classified in this test?
Output line: true (1)

Input line: How was Cc1c(N)nc(C(CC(N)=O)NCC(N)C(N)=O)nc1C(=O)NC(C(=O)NC(C)C(O)C(C)C(=O)NC(C(=O)NCCc1nc(-c2nc(C(=O)NCCCNCCCCN)cs2)cs1)C(C)O)C(OC1OC(CO)C(O)C(O)C1OC1OC(CO)C(O)C(OC(N)=O)C1O)c1cnc[nH]1 (stereo unspecified) classified in this test?
Output line: false (0)

Input line: How was COc1cc(/C=C/c2cc(/C=C/c3ccc(O)c(OC)c3)[nH]c(=O)n2)ccc1O classified in this test?
Output line: false (0)

Input line: How was FC(F)(F)c1cc(NC2=NCCN=C(Nc3cc(C(F)(F)F)cc(C(F)(F)F)c3)SS2)cc(C(F)(F)F)c1 classified in this test?
Output line: false (0)
